system: SK-MEL-5 melanoma; assay: NCI-60 one-dose screen, 48 h; details: 10 µM unless noted
The panel holds about 83,000 compounds, 20% with a hit somewhere; the sample as a whole holds those more often. Calls of active or inactive are those of the source. Rule for the calls: active = growth percent below 10; inactive = the rest.
Just give me one of these, please: true (1) (active), false (0) (inactive)

Below, 2 compounds whose answers are already recorded.
compound | qualitative.label
C/C(Cc1ccc(Cl)cc1)=C(\c1ccc(OCCN2CCOCC2)cc1)c1ccc(OC(=O)Cc2ccccc2)cc1 | false (0)
CC[C@H](C)[C@H](NC(=O)C12CC(NC(C)=O)(C1)C2)C(=O)N(C)[C@H](C[C@@H](OC(C)=O)c1nc(C(=O)N[C@@H](Cc2ccccc2)C[C@H](C)C(=O)OC)cs1)C(C)C | true (1)

query: What did this assay record as the result for CC[S][Hg][Cl] ?
result: false (0)

query: Please share the test call associated with N#CC1(C#N)C(c2ccc(N(CCCl)CCCl)cc2)OC23CCCCC2C1(C#N)C(=N)O3 (stereo unspecified) .
result: false (0)

query: Status in this test for COC(=O)[C@H](Cc1ccccc1)NC(=O)c1csc([C@@H](C[C@H](C(C)C)N(C)C(=O)[C@@H](NC(=O)[C@H]2CCCN2C)C2CC2)OC(C)=O)n1 ?
result: false (0)

query: Status in this test for CCCCNC(c1ccc(Cl)cc1)C(O)c1ccc(Cl)cc1 (stereo unspecified) ?
result: false (0)

query: Dear all, I need the recorded test outcome for COc1cc(NCCCN=C(N)N)c2ncccc2c1 , thank you.
result: false (0)

query: Identify the outcome logged in this assay for the compound shown: Clc1cc(N2CC2)nc(N2CC2)n1
result: false (0)

query: # outcome recorded in this test, key = COc1cc2c(c(OC)c1OC)-c1ccc([O-])c(=O)cc1[C@@H](NC(C)=O)CC2.COc1cc2c(c(OC)c1OC)-c1ccc([O-])c(=O)cc1[C@@H](NC(C)=O)CC2.[Cu+2]
result: false (0)

query: Hi team, can someone confirm the assay call for CC[C@H](C)[C@H](NC(=O)[C@H]1CCCCN1C)C(=O)N(C)[C@H](C[C@@H](OC(C)=O)c1nc(C(=O)NC23CC(C(=O)OC)(C2)C3)cs1)C(C)C ?
result: true (1)

---

tested on: SNB-19 CNS; test: NCI-60 one-dose screen, 48 h (100 = growth as untreated, 0 = no growth, -100 = all killed); details: 10 µM unless noted
This is part of a sample that, as a whole, favours compounds with a hit. Of some 83,000 tested, about 20% had one in any assay.
Kindly return Fulfilled if reported growth is no lower than 80%; return Not fulfilled if it is lower.

Some solved cases for reference:
molecule | qualitative.label
NC(=S)c1cn(C2OC(CO)C(O)C2O)c2ncnc(N)c12 (stereo not given) | Not fulfilled
CC12CCC3C(CCC4=CC(=O)CCC43CF)C1CCC2=O (stereo not given) | Fulfilled
CC(C)COC(C[N+](=O)[O-])C(Cl)(Cl)Cl (stereo not given) | Fulfilled
CCn1cnc2c(Nc3cccc(Cl)c3)nc(N[C@@H]3CCCC[C@@H]3N)nc21 | Not fulfilled
C/C=C(\C)C(=O)O[C@@H]1C(O)[C@H]2OC(COC(=O)CCC(=O)CCCCCC[C@H](CCCCC)O[C@@H]3OC(C)[C@H](OC(C)=O)C(O)[C@H]3O2)[C@H]1OC(=O)/C=C/c1ccccc1 (stereo not given in full) | Not fulfilled
CCOC(=O)CCN(C)C1=Nc2ccc(Cl)cc2C(c2ccccc2)=[N+]([O-])C1 | Fulfilled
CCCC(C)C1(CC)C(=O)NC(=O)N(C)C1=O (stereo not given) | Fulfilled
Cn1cc(-c2csc(-c3cn(CCCCN4CCCCC4)c4ccc(F)cc34)n2)c2cccnc21 | Fulfilled

// next entry
query: Does growth meet or surpass 80% for CC1=C([Te]c2ccc(O)cc2)C(=O)c2ccccc2C1=O ?
result: Not fulfilled

---

Assign growth to each entry below.
system: A498 renal; experiment: NCI-60 one-dose screen, 48 h (100 = growth as untreated, 0 = no growth, -100 = all killed); details: 10 µM
Compounds without any hit were thinned out: in the full panel of roughly 83,000, 20% have a hit.
One number for each entry, in %.

compound | growth (%)
O=C1Nc2ccccc2C2c3cccn3-c3ccccc3CN12 (stereo not given) | 41.1
O=C1OCCC1Br (stereo not given) | 101

I'm hoping you can list growth for every compound here, please.
1. N/C(=N\N=C\c1ccc(-c2ccccc2)cc1)N[N+](=O)[O-]
2. COc1ccc(/C=C\c2cc(OC)c(OC)c(OC)c2)cc1OCC(=O)Nc1nc2ccc(C(F)(F)F)cc2s1
3. O=C(O)c1ccc([S-])cc1.[Au+].c1ccc(CN2[CH-]N(Cc3ccccc3)C(c3ccccc3)=C2c2ccccc2)cc1

result:
[5.42, 14.3, -33.8]

---

tested on: NCI-H522 lung; test: NCI-60 one-dose screen, 48 h (100 = growth as untreated, 0 = no growth, -100 = all killed); settings: 10 µM unless noted
Compounds without any hit were thinned out: in the full panel of roughly 83,000, 20% have a hit.
Each entry falls into one class according to its growth; the ranges are bucket A = under 20%, bucket B = from 20% up to 70%, bucket C = 70% and over

Example cases with answers are listed next.
compound | qualitative.label
CC1(C)CN1P(=O)(N1CC1(C)C)N1CC1(C)C (stereo not drawn) | bucket C
CN[C@]1(c2ccccc2Cl)CCCC[C@H]1NCCCN1CCN(C)CC1 | bucket C
CC1=C(CCCOC(=O)CN)C2=C(C)C3(CC3)[C@@](C)(O)C(=O)C2=C1 | bucket B
CC1=C(CCCOC(=O)[C@H](N)CC(C)C)C2=C(C)C3(CC3)[C@@](C)(O)C(=O)C2=C1 | bucket B
C[n+]1c(/C=C/c2ccc(N(CCCl)CCCl)cc2)sc2ccccc21 | bucket A

query: Class (by measured growth) for COc1cc(NCCCN=C(N)N)c2ncccc2c1
result: bucket A

query: Bin? C=CC[Se]C(=O)c1ccccc1OC(C)=O
result: bucket B

query: # classify by growth band: CC[C@H](C)[C@H](NC(=O)N[C@@H](C)c1ccccc1)C(=O)N(C)[C@H](C[C@@H](OC(C)=O)c1nc(C(=O)N[C@@H](Cc2ccccc2)C[C@H](C)C(=O)OC)cs1)C(C)C
result: bucket A

query: Hi, small favor: classify COc1cc2c(c(OC)c1OC)-c1ccc([O-])c(=O)cc1[C@@H](NC(C)=O)CC2.COc1cc2c(c(OC)c1OC)-c1ccc([O-])c(=O)cc1[C@@H](NC(C)=O)CC2.[Cu+2] by its growth when you get a moment.
result: bucket A

query: The entry to classify is NC(N)=N/N=C\c1c[nH]c2ccc(Br)cc12 ; which class holds it?
result: bucket C

query: Any idea which band COc1cc2c(=O)n(C3CCCCCCC3)c3c4cc[nH]c4ncc3c2cc1OC is in?
result: bucket B

query: In plain terms, what class is CN1C(=O)C(=Cc2cn(CCCCCCn3c4ccccc4c(=O)c4ccccc43)c3ccccc23)C(=O)N(C)C1=O ?
result: bucket C

query: Quick check: band for CCOC(=O)[C@@H](C)C[C@H](Cc1ccccc1)NC(=O)c1nc([C@@H](C[C@H](C(C)C)N(C)C(=O)[C@@H](NC(=O)[C@H]2CCCCN2C)C(C)C)OC(C)=O)sc1CCOCc1ccccc1
result: bucket A

query: Entry CCOC(=O)c1c(C)n(Cc2ccccc2)c2cc(CN(C)C)c(O)cc12 belongs to which category?
result: bucket C

query: Which category does the recorded growth put O=C(CN1CCN(C(=O)c2ccco2)CC1)Nc1ccc(Cl)cc1C(=O)c1ccccc1Cl in?
result: bucket B

query: State the class of the compound shown: COc1ccc(C2=N[C@@H](Cc3ccccc3)C(=O)Nc3ccsc32)cc1
result: bucket A

query: Tag the class for COc1cc(C=Nc2cccc(C(=O)O)c2)ccc1N(CCCl)CCCl
result: bucket A

query: Exam item: assign CCCC(C)C1(CC)C(=O)NC(=O)N(C)C1=O (stereo not drawn) to the correct category.
result: bucket C

query: For CNC(=O)Oc1cccc(C(F)(F)F)c1 , which growth bin applies?
result: bucket C

query: Form field 'band' for C=COC(=O)CCN1CC1
result: bucket C

---

system: SW-620 colon; assay: NCI-60 one-dose screen, 48 h (100 = growth as untreated, 0 = no growth, -100 = all killed); details: 10 µM unless noted
Compounds without any hit were thinned out: in the full panel of roughly 83,000, 20% have a hit. Activity calls are given as the source filed them. The calls were made as follows: active = growth percent below 10; inactive = the rest.
What growth was measured for each of the following?

smiles.structure | meas.value
COc1ccc(/C=C\c2cc(OC)c(OC)c(OC)c2)cc1NS(=O)(=O)c1ccc(Cl)cc1 | 73.6% (inactive)
COc1cc(NCCCN=C(N)N)c2ncccc2c1 | 92.8% (inactive)
C[C@]12CC[C@H]3[C@@H](CC[C@]4(O)C[C@@H](O[C@@H]5O[C@H](CO)[C@@H](O[C@@H]6OC[C@@H](O)[C@H](O)[C@H]6O)[C@H](O)[C@H]5O)CC[C@]34C=O)[C@@]1(O)CC[C@@H]2C1=CC(=O)OC1 | 8.41% (active)

Here is another molecule to look at.
The recorded growth for entry O=C(O)C(Cl)(Cl)C(F)(F)F equals 94.7% (inactive)

Source listed as PubChem BioAssay (NCI).
